Please respond with reported SPOT peptide array binding signal intensity for every item in the list.
- TGT: SpBzz1-D2
- EXPERIMENT NOTES: SPOT peptide array binding signal intensity (averaged, normalized) (arbitrary units (background-subtracted, floor 0; scale differs between SH3 domains)); higher = stronger binding of the SH3 domain to the peptide

Query SPOT peptide array binding signal intensity for `PPIPIVPSSPAPPLP`
≤ 0

Identify measured SPOT peptide array binding signal intensity corresponding to `KIRRSSLMIPNPQQF`
≤ 0

Please list SPOT peptide array binding signal intensity recorded for the binder `NVLRKILEIPLHSFS`
≤ 0

Report SPOT peptide array binding signal intensity for `MSPLGAPPPPPHKDH`
≤ 0

Specify measured SPOT peptide array binding signal intensity for `NRPAIRIPSLKKPAL` .
≤ 0

Tell us which SPOT peptide array binding signal intensity value is on record for `NFFRKKLGIPRKLKR`
≤ 0

Please report SPOT peptide array binding signal intensity for the following binder: `VATSTSPKLPPRGKQ`
≤ 0

Fill in reported SPOT peptide array binding signal intensity for this entry: `RRASLFPRDPKRLRP`
≤ 0

Query SPOT peptide array binding signal intensity for `NLDRSKISLPDFDDE`
≤ 0

Fill in reported SPOT peptide array binding signal intensity for this entry: `SAPDIPPRSPNRNAH`
≤ 0

Check the records and state SPOT peptide array binding signal intensity for `NMLKKKPLKKPLKRF`
48.2

Please look at this binder and report its SPOT peptide array binding signal intensity: `LKQRFFLMFPKSIIW`
0.5

For the binder `KFIPSRPAPKPPSSA` , report SPOT peptide array binding signal intensity.
32.8

Return the recorded SPOT peptide array binding signal intensity value; entry: `TKRKRPARLIFYDSK`
0.75

State, in one line, measured SPOT peptide array binding signal intensity of `RNNRPVPPPPPMRTT`
28.8

# credit: the supplement of paper PMC4466140
